- experimental target: rat I7 olfactory receptor (OR-I7) (Rattus norvegicus)
- Sequence (P23270 whole entry): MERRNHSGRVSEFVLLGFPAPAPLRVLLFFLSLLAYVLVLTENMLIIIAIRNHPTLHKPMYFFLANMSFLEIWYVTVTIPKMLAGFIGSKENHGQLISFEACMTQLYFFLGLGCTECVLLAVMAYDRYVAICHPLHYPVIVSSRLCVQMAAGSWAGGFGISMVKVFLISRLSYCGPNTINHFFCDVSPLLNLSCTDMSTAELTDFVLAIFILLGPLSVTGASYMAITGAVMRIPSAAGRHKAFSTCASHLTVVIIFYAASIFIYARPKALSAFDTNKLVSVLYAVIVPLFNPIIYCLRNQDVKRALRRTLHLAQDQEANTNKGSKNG
- Assay type: cell-based
pEC50: −log10 of the molar value.
assay metric: pEC50

[1] CCCCCCCCC=O
[2] CCCCCCCCCC=O
[3] CCCCCCCCCCC=O
Lookup: For the molecules shown above, give the order from largest pEC50 to smallest. Rank them, then answer with their labels in that order.
Found: 1, 2, 3
(1: 5.36, 2: 4.80, 3: 3.35)

Taken from paper PMC2912408.
